Source listed as PubChem BioAssay AID1159580.

Experiment: chemical genetic growth profiling, strain panel (AID 1159580);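 further: tested at 20 µM; growth read once vehicle control cultures reached saturation at 30 °C; 1 = growth at the plate median or of vehicle wells; lower values mean less growth of the strain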
Settings: S. cerevisiae deletion strains, growth OD, locus YNL307C, strain MCK1, stronger effect = lower value
Hit rate of the full screen: of about 5,500 compounds, about 2,000 (36%) were called active. Roughly 18% stayed inconclusive and do not appear here. The list shows a part of the results.
What normalized growth was measured for each of the following?
In your answer, state the number alone without any accompanying words.

Query block: Dear colleague, please send me the reported normalized growth for CCN(CC)CCOC(=O)C1(C2CCCCC2)CCCCC1 when you can.
Result block: 0.968

Query block: Dear colleague, please send me the reported normalized growth for CC(C)CCCC(C)C1CCC2C3=CC[C@H]4C[C@@H](O)CC[C@]4(C)C3CC[C@@]21C (some centres undefined) when you can.
Result block: 0.996

Query block: Dear colleague, please send me the reported normalized growth for CC(C)CCCC(C)C1CCC2C3C[C@@H](O)[C@@]4(O)C[C@@H](O)CC[C@]4(C)C3CC[C@]12C (some centres undefined) when you can.
Result block: 1.02

Query block: Dear colleague, please send me the reported normalized growth for CC(C)CCCC(C)[C@H]1CCC2C3CC=C4C[C@@H](O)CC[C@]4(C)C3CC[C@@]21C (some centres undefined) when you can.
Result block: 0.987

Query block: Dear colleague, please send me the reported normalized growth for CC(=O)N[C@@H](Cc1c[nH]c2ccccc12)C(N)=O when you can.
Result block: 1.02

Query block: Dear colleague, please send me the reported normalized growth for CC12CCC(=O)C=C1CCC1C2[C@@H](O)CC2(C)C1CC[C@]2(O)C(=O)COP(=O)(O)O (some centres undefined) when you can.
Result block: 1

Query block: Dear colleague, please send me the reported normalized growth for CC(C)CCCC(C)C1CC[C@@]2(C)C3=C(CC[C@]12C)[C@@]1(C)CC[C@H](O)C(C)(C)C1CC3 (some centres undefined) when you can.
Result block: 0.959

Query block: Dear colleague, please send me the reported normalized growth for CC(C)c1ccc2c(c1)CCC1[C@](C)(CN)CCC[C@]21C (some centres undefined) when you can.
Result block: 0.132

Query block: Dear colleague, please send me the reported normalized growth for CC(C)CCCC(C)C1CCC2C3CC(=O)[C@H]4C[C@@H](O)CC[C@]4(C)C3CC[C@]12C (some centres undefined) when you can.
Result block: 1.04

---

Experiment: chemical genetic growth profiling, strain panel (AID 1159580)
Settings: S. cerevisiae deletion strains, growth OD, locus YPR106W, strain ISR1, stronger effect = lower value
About 2,000 (36%) of roughly 5,500 compounds were called active. Inconclusive results (about 18%) are left out. The list shows a part of the results.
What normalized growth was measured for each of the following?
In your answer, state the number alone without any accompanying words.

Query block: Dear colleague, please send me the reported normalized growth for Brc1ccc(-c2csc(-c3ccncc3)n2)cc1 when you can.
Result block: 0.919

Query block: Dear colleague, please send me the reported normalized growth for O=[N+]([O-])c1cccc(C2CC(c3ccccc3)=Nc3ccccc3S2)c1 (stereo unspecified) when you can.
Result block: 0.967

Query block: Dear colleague, please send me the reported normalized growth for Cc1ccc2nc(-c3ccc4c(c3)OCCO4)cn2c1 when you can.
Result block: 0.973

Query block: Dear colleague, please send me the reported normalized growth for Cc1cc(/C(N)=N\OC(=O)C(C)(C)C)cc(/C(N)=N\OC(=O)C(C)(C)C)c1 when you can.
Result block: 0.978

Query block: Dear colleague, please send me the reported normalized growth for CSc1n[nH]c(-c2cc(C(C)(C)C)oc2C)c1C#N when you can.
Result block: 0.947

Query block: Dear colleague, please send me the reported normalized growth for Cc1ccc(-c2csc(-c3ccncc3)n2)cc1 when you can.
Result block: 0.924

---

What normalized growth was measured for each of the following?
Experiment: chemical genetic growth profiling, strain panel (AID 1159580);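 further: tested at 20 µM; growth read once vehicle control cultures reached saturation at 30 °C; 1 = growth at the plate median or of vehicle wells; lower values mean less growth of the strain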
Details: S. cerevisiae deletion strains, growth OD, locus YLR058C, strain SHM2 (second series), stronger effect = lower value
The campaign covered roughly 5,500 compounds. About 2,000 (36%) were called active. Roughly 18% stayed inconclusive and do not appear here. The list shows a part of the results.
In your answer, state the number alone without any accompanying words.

Query block: Dear colleague, please send me the reported normalized growth for c1ccc(CN2CCC(n3nnc4cccnc43)CC2)cc1 when you can.
Result block: 1.04

Query block: Dear colleague, please send me the reported normalized growth for c1ccc(-c2nc(-c3cccs3)cs2)cc1 when you can.
Result block: 0.859

Query block: Dear colleague, please send me the reported normalized growth for Fc1cc(F)cc(COc2cc(Cl)cc(Cl)c2)c1 when you can.
Result block: 0.972

Query block: Dear colleague, please send me the reported normalized growth for Cc1cccc(C)c1N=C1SCCS1 when you can.
Result block: 0.996

Query block: Dear colleague, please send me the reported normalized growth for Cc1ccc(Sc2ccc([N+](=O)[O-])cc2/C=C2\SC(=S)NC2=O)cc1 when you can.
Result block: 0.999

Query block: Dear colleague, please send me the reported normalized growth for COC(=O)c1ccc(S(=O)(=O)N2CCC(C(N)=O)CC2)n1C when you can.
Result block: 0.991

Query block: Dear colleague, please send me the reported normalized growth for OC(c1ccccc1)(c1ccccc1)c1ccncc1 when you can.
Result block: 0.996

Query block: Dear colleague, please send me the reported normalized growth for c1ccc(-c2csc(-c3ccncc3)n2)cc1 when you can.
Result block: 0.972

Query block: Dear colleague, please send me the reported normalized growth for O=c1[nH]cnc2ccsc12 when you can.
Result block: 1.03

Query block: Dear colleague, please send me the reported normalized growth for C(=C(c1ccccc1)c1ccccc1)N1CCC1 when you can.
Result block: 0.998

Query block: Dear colleague, please send me the reported normalized growth for O=S(=O)(Oc1ccc(OCc2ccccc2)cc1)c1cc(Cl)cc(Cl)c1 when you can.
Result block: 1.01

Query block: Dear colleague, please send me the reported normalized growth for O=C(O)C1C2CCC1C(O)C2 (stereo not drawn) when you can.
Result block: 1.02

Query block: Dear colleague, please send me the reported normalized growth for COCc1cc(=O)n2[nH]c(C(C)(C)C)cc2n1 when you can.
Result block: 0.988

---

Experiment: chemical genetic growth profiling, strain panel (AID 1159580);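 further: tested at 20 µM; growth read once vehicle control cultures reached saturation at 30 °C; 1 = growth at the plate median or of vehicle wells; lower values mean less growth of the strain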
Conditions: S. cerevisiae deletion strains, growth OD, locus YBR229C, strain ROT2, stronger effect = lower value
Among all 5,500 compounds or so, about 2,000 (36%) were called active. Inconclusive results (about 18%) are left out. The list shows a part of the results.
measurement kind: normalized growth
In your answer, state the number alone without any accompanying words.

Query block: Dear colleague, please send me the reported normalized growth for O=C(O)C1=CCCNC1 when you can.
Result block: 1

Query block: Dear colleague, please send me the reported normalized growth for C=C(C)C1CCC(C)(O)C2CC3OC3(C)C2C1 (configuration not stated) when you can.
Result block: 1.01

Query block: Dear colleague, please send me the reported normalized growth for CC(Cc1cccc(C(F)(F)F)c1)NCCOC(=O)c1ccccc1 (configuration not stated) when you can.
Result block: 1.01

Query block: Dear colleague, please send me the reported normalized growth for O=[N+]([O-])c1ccc(N2CCOCC2)cc1 when you can.
Result block: 1

Query block: Dear colleague, please send me the reported normalized growth for Cc1cc(=O)n(-c2ccc([N+](=O)[O-])cc2)[nH]1 when you can.
Result block: 0.867

Query block: Dear colleague, please send me the reported normalized growth for CC(=O)Oc1ccc(O)cc1 when you can.
Result block: 1.02

Query block: Dear colleague, please send me the reported normalized growth for CCOC(=O)c1ccc(NC(=O)CCC(=O)O)cc1 when you can.
Result block: 0.983

---

What normalized growth was measured for each of the following?
Experiment: chemical genetic growth profiling, strain panel (AID 1159580);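 further: tested at 20 µM; growth read once vehicle control cultures reached saturation at 30 °C; 1 = growth at the plate median or of vehicle wells; lower values mean less growth of the strain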
Conditions: S. cerevisiae deletion strains, growth OD, locus YHR013C, strain ard1, stronger effect = lower value
Hit rate of the full screen: of about 5,500 compounds, about 2,000 (36%) were called active. Not shown: some 18% with an inconclusive outcome. This is one part of the list.
In your answer, state the number alone without any accompanying words.

Query block: Dear colleague, please send me the reported normalized growth for Cc1cc(=O)[nH]c(=S)[nH]1 when you can.
Result block: 0.914

Query block: Dear colleague, please send me the reported normalized growth for CC(Cc1cccc(C(F)(F)F)c1)NCCOC(=O)c1ccccc1 (stereo unspecified) when you can.
Result block: 0.963

Query block: Dear colleague, please send me the reported normalized growth for CN(C)CCCN1c2ccccc2CCc2ccccc21 when you can.
Result block: 0.947

Query block: Dear colleague, please send me the reported normalized growth for CC(=O)Oc1ccc(/C=C/c2cc(OC(C)=O)cc(OC(C)=O)c2)cc1 when you can.
Result block: 0.978

Query block: Dear colleague, please send me the reported normalized growth for COc1ccc([C@@H]2CC(=O)c3c(O)cc(O[C@@H]4O[C@H](CO[C@H]5O[C@@H](C)[C@H](O)[C@@H](O)[C@H]5O)[C@@H](O)[C@H](O)[C@H]4O)cc3O2)cc1O when you can.
Result block: 0.922

Query block: Dear colleague, please send me the reported normalized growth for CN(C)CCCN1c2ccccc2CCc2ccc(Cl)cc21 when you can.
Result block: 0.852

Query block: Dear colleague, please send me the reported normalized growth for CC(=O)Oc1cccc(O)c1 when you can.
Result block: 1.02

Query block: Dear colleague, please send me the reported normalized growth for CCCc1cc(=O)[nH]c(=S)[nH]1 when you can.
Result block: 1.09

Query block: Dear colleague, please send me the reported normalized growth for CC(=O)Oc1ccc(C(c2ccc(OC(C)=O)cc2)c2ccccn2)cc1 when you can.
Result block: 1.06

Query block: Dear colleague, please send me the reported normalized growth for COc1ccc(C2Sc3ccccc3N(CCN(C)C)C(=O)C2OC(C)=O)cc1 (stereo unspecified) when you can.
Result block: 0.979

Query block: Dear colleague, please send me the reported normalized growth for CC(=O)Oc1ccc(O)cc1 when you can.
Result block: 0.975
